- Tested target: T1, human OPGbp [143-317] (human, UniProt O14788 143-317)
- T1 construct: also called OPGL
- T1 sequence (looked up): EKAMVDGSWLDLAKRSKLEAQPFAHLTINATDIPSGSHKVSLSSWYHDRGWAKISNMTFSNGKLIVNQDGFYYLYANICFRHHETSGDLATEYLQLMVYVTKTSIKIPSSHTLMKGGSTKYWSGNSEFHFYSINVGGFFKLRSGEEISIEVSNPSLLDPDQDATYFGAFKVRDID
- Test method notes: SPR (BIAcore), immobilized OPGbp [143-317]
Please provide measured kon for the entries that follow.
One number for each entry, in M⁻¹ s⁻¹.

Known kon results, listed for orientation:
* “AT” antibody variant N98V (heavy chain CDR3) (antibody, name in Kabat numbering, V domains shown, not shown: human IgG1 CH1, hinge, CH2 and CH3) VH: QVQLVQSGAEVRKPGASVKVSCKASGYDFSNYAIHWVRQAPGQRLEWMGWINAGNGNTKFSQKFQGRITVTRDTAASTAYMELRSLRSEDTAVYYCARDSSVMVRGIIIAYYFDYWGQGTLVTVSS VL: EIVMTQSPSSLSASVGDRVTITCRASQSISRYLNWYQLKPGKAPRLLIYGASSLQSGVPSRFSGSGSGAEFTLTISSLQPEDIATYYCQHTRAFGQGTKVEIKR | 456000
* “AT” antibody variant N98Q (heavy chain CDR3) (antibody, name in Kabat numbering, V domains shown, not shown: human IgG1 CH1, hinge, CH2 and CH3) VH: QVQLVQSGAEVRKPGASVKVSCKASGYDFSNYAIHWVRQAPGQRLEWMGWINAGNGNTKFSQKFQGRITVTRDTAASTAYMELRSLRSEDTAVYYCARDSSQMVRGIIIAYYFDYWGQGTLVTVSS VL: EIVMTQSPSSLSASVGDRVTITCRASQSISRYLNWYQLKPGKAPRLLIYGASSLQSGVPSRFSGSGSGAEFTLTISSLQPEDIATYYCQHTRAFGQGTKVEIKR | 1.86e+06

Shift focus to the following entry.
[in] I am curious: what kon value has been reported for “AT” antibody variant N98D (heavy chain CDR3) (antibody, name in Kabat numbering, V domains shown, not shown: human IgG1 CH1, hinge, CH2 and CH3) VH: QVQLVQSGAEVRKPGASVKVSCKASGYDFSNYAIHWVRQAPGQRLEWMGWINAGNGNTKFSQKFQGRITVTRDTAASTAYMELRSLRSEDTAVYYCARDSSDMVRGIIIAYYFDYWGQGTLVTVSS VL: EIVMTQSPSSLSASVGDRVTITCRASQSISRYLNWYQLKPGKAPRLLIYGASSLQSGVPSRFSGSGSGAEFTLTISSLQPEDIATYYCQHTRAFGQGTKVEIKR ?
[out] 6.85e+06
